System: HOP-62
Test: Growth inhibition of human HOP62 cells after 48 hrs by MTT assay
Assay type: functional
Experimental Context: HOP-62, 48 h
Counter-ions that a name gives are not always drawn.
In this section, each of the compounds is paired with its reported GI50.
Experimental Readout: GI50 (µM)

Compound	Reported Measurement
COc1cc(-c2nnnn2-c2ccc(-c3nc4ccccc4o3)cc2)cc(OC)c1OC	1.67
O=[N+]([O-])c1ccc(-c2nnnn2-c2ccc(-c3nc4ccccc4o3)cc2)cc1	1.22
COc1cccc2c1C(=O)c1c(O)c3c(c(O)c1C2=O)C[C@@](O)(C(=O)CO)C[C@@H]3O[C@H]1C[C@H](N)[C@H](O)[C@H](C)O1 [DOXORUBICIN HYDROCHLORIDE]	0.14
O=[N+]([O-])c1cccc(-c2nnnn2-c2ccc(-c3nc4ccccc4o3)cc2)c1	2.9

====

System: CCRF-CEM
Test: Cytotoxicity against human CCRF-CEM cells assessed as reduction in cell viability at 25 uM after 24 hrs by MTT assay relative to control
Assay type: functional
Experimental Context: values are per cent of control

Compound Smiles	viability, % of control at 25 µM
Clc1ccccc1-c1nnnn1CCCn1cnc2c(Br)c(Br)c(Br)c(Br)c21	1%
Brc1c(Br)c(Br)c2c(ncn2CCCn2nnnc2-c2ccccc2)c1Br	4%
Brc1c(Br)c(Br)c2c(ncn2CCCn2nnc(-c3ccccc3)n2)c1Br	73%
Clc1ccccc1-c1nnn(CCCn2cnc3c(Br)c(Br)c(Br)c(Br)c32)n1	96%

====

viability, % of control at 10 µM by entry:
Test system: CCRF-CEM
Test: Cytotoxicity against human CCRF-CEM cells assessed as reduction in cell viability at 10 uM after 48 hrs by MTT assay relative to control
Type: functional
Experimental Context: values are per cent of control
Experimental Readout: viability, % of control at 10 µM (%)

Compound Smiles	Experimental Readout	Reported Measurement
Brc1c(Br)c(Br)c2c(ncn2CCCn2nnnc2-c2ccccc2)c1Br	viability, % of control at 10 µM	57
Clc1ccccc1-c1nnnn1CCCn1cnc2c(Br)c(Br)c(Br)c(Br)c21	viability, % of control at 10 µM	51
Brc1c(Br)c(Br)c2c(ncn2CCCn2nnc(-c3ccccc3)n2)c1Br	viability, % of control at 10 µM	105
Clc1ccccc1-c1nnn(CCCn2cnc3c(Br)c(Br)c(Br)c(Br)c32)n1	viability, % of control at 10 µM	104
